pIC50: −log10 of the molar value.
pIC50, CDK2 (Homo sapiens (Human), UniProt P24941), per-entry values.

C=CC(=O)Nc1ccc(C(=O)Nc2n[nH]c3c2CN(C(=O)N[C@H](CN(C)C)C2CCOCC2)C3(C)C)cc1 | < 6.43
C=CC(=O)Nc1ccc(C(=O)Nc2n[nH]c3c2CN(C(=O)NC(CN(C)C)C2CCOC2)C3(C)C)cc1 (stereo not drawn) | < 5.00

Shifting focus to the molecule that follows.
I looked up C=CC(=O)Nc1ccc(C(=O)Nc2n[nH]c3c2CN(C(=O)NC2CN(C)Cc4ccccc42)C3(C)C)cc1 (stereo not drawn) and its pIC50 for CDK2 (Homo sapiens (Human), UniProt P24941) was 5.47

---

molecular target: CDK9 (Homo sapiens (Human), UniProt P50750)
Sequence (P50750 whole entry): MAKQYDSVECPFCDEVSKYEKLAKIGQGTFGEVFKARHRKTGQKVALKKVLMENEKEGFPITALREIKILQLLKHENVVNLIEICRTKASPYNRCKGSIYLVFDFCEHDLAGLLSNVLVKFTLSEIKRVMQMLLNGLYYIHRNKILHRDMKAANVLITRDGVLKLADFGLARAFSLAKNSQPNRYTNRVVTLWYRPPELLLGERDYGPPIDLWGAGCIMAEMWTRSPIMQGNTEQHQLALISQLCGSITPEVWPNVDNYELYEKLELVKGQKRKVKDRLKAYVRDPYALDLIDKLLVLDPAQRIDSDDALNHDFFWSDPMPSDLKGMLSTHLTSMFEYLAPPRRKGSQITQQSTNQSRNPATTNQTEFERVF
Sequence (O60563 whole entry partner): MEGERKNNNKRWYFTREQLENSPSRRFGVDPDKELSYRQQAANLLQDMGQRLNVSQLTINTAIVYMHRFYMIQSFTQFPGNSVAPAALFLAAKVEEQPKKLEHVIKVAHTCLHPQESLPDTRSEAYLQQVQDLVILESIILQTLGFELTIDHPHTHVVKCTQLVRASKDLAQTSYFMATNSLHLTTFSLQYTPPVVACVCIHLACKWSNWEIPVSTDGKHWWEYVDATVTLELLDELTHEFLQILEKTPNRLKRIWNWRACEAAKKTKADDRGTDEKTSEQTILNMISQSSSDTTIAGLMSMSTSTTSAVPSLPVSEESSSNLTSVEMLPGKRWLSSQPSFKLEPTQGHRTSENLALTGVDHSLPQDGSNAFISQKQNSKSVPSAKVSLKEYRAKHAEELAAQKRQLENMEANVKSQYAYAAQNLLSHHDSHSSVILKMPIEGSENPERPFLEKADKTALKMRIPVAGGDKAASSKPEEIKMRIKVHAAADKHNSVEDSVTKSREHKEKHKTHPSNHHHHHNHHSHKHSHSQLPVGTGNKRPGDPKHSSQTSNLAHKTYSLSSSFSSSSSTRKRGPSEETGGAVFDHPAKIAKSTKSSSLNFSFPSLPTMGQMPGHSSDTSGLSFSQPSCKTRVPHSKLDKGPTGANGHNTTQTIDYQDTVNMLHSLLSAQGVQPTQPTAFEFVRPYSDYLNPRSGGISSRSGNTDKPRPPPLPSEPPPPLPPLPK
pIC50: −log10 of the molar value.
Recorded pIC50 values for a group of compounds are listed next.

# annotated cases, reported pIC50 shown
C=CC(=O)Nc1ccc(C(=O)Nc2n[nH]c3c2CN(C(=O)NC2(CN(C)C)CC2)C3(C)C)cc1 | < 5.00
CN(C)C[C@@H](NC(=O)N1Cc2c(Nc3ccnc(C(F)(F)F)n3)n[nH]c2C1(C)C)C1CCOCC1 | < 5.00

Shifting focus to the compound that follows.
I looked up `Cc1nc(Nc2n[nH]c3c2CN(C(=O)N[C@H](CN(C)C)C2CCOCC2)C3(C)C)c2sccc2n1` and its pIC50 for CDK9 (Homo sapiens (Human), UniProt P50750) was < 5.00
